# test.details: Cytotoxicity against mouse Hepa-1c1c7 cells assessed as cell survival at 5 uM after 48 hrs by MTT assay
# Type: cell-based
# condition.description: read-out: Activity
endpoint.label: viability at 48 h, 5 µM (%)
Answers are plain numbers, in %.

Worked examples follow.
* COc1cc(OC)c2c(c1)O/C(=C\c1ccc(C)cc1)C2=O | 89
* N#Cc1ccc(/C=C2\Oc3cc(O)ccc3C2=O)cc1 | 94
* O=C1/C(=C/c2ccc(O)cc2)Oc2cc(O)cc(O)c21 | 105

Lab note: each compound below needs its viability at 48 h, 5 µM filled in.
1. COc1cc(OC)c2c(c1)O/C(=C\c1ccc(C#N)cc1)C2=O
2. O=C1/C(=C/c2ccccc2O)Oc2cc(O)ccc21
3. O=C1/C(=C/c2ccccc2Cl)Oc2cc(O)cc(O)c21

Solution:
91
113
101

Record viability at 48 h, 5 µM for all entries; do not skip any.
1. COc1cc(OC)c2c(c1)O/C(=C\c1ccccc1C)C2=O
2. COc1ccc(/C=C2\Oc3cc(O)cc(O)c3C2=O)cc1
3. O=C1/C(=C/c2cccc(O)c2)Oc2cc(O)ccc21

Solution:
91
109
112

* * *

# test.details: Induction of NQO1 activity in mouse Hepa-1c1c7 cells at 5 uM after 48 hrs relative to control
Would you kindly list fold change (FC) for each of these compounds?
One number for each entry.

Completed entries (count: 8):
* O=C1/C(=C/c2ccc(Cl)cc2)Oc2cc(O)cc(O)c21 | 1.59
* COc1cc(OC)c2c(c1)OC(=O)/C2=C\c1ccccc1OC | 1.79
* COc1cc(OC)c2c(c1)OC(=O)/C2=C\c1ccccc1O | 1.49
* COc1cc(OC)c2c(c1)O/C(=C\c1ccc(N3CCN(C)CC3)cc1)C2=O | 1.25
* O=C1/C(=C/c2ccccc2Cl)Oc2cc(O)cc(O)c21 | 2.64
* N#Cc1ccc(/C=C2\Oc3cc(O)ccc3C2=O)cc1 | 1.15
* COc1cc(OC)c2c(c1)O/C(=C\c1ccc(C#N)cc1)C2=O | 1.36
* O=C1Oc2ccc(O)cc2/C1=C/c1ccc(O)cc1 | 1.3

Would you be so kind as to report fold change (FC) for each listed record?
1. O=C1/C(=C/c2ccccc2)Oc2ccc(O)cc21
2. O=C1/C(=C/c2ccccc2)Oc2cc(O)ccc21
3. COc1ccc(/C=C2\Oc3cc(O)ccc3C2=O)cc1
4. O=C1/C(=C/c2cccc(O)c2)Oc2cc(O)ccc21

Solution:
1: 2.28; 2: 1.14; 3: 1.19; 4: 1.64

* * *

# test.details: Cytotoxicity against mouse Hepa-1c1c7 cells assessed as cell survival at 25 uM after 48 hrs by MTT assay
# Assay type: cell-based
# condition.description: read-out: Activity
endpoint.label: viability at 48 h, 25 µM (%)
Numbers only, in %.

Below, 6 molecules whose answers are already recorded.
• COc1cc(/C=C2\Oc3cc(O)cc(O)c3C2=O)cc(OC)c1OC = 94
• COc1cc(OC)c2c(c1)O/C(=C\c1ccc([N+](=O)[O-])cc1)C2=O = 88
• COc1cc(OC)c2c(c1)O/C(=C\c1ccc(O)cc1)C2=O = 89
• Cc1ccc(/C=C2\Oc3cc(O)cc(O)c3C2=O)cc1 = 95
• COc1ccc(/C=C2\Oc3cc(O)ccc3C2=O)cc1 = 95
• O=C1/C(=C/c2ccccc2F)Oc2cc(O)cc(O)c21 = 96

Quick one: give me viability at 48 h, 25 µM for each item below, same order please.
1. COc1ccccc1/C=C1\Oc2cc(O)cc(O)c2C1=O
2. O=C1/C(=C/c2ccccc2)Oc2cc(O)ccc21
3. COc1cc(OC)c2c(c1)O/C(=C\c1ccc(C(F)(F)F)cc1)C2=O

Solution:
1: 100; 2: 110; 3: 93

Please give viability at 48 h, 25 µM, item by item, for the list that follows.
1. O=C1/C(=C/c2ccc(O)cc2)Oc2cc(O)ccc21
2. O=C1/C(=C/c2ccccc2O)Oc2ccc(O)cc21

Solution:
1. 98
2. 104
